Quick list: apparent KD of MS2 coat protein per entry.
Test system: MS2 coat protein
Test: apparent KD of MS2 coat protein, switch ON state; designed switch direction (-1 OFF switch, 1 ON switch): 1; higher = weaker reporter binding
Details: FMN input: 0 or 200 uM; Eterna round: R93 (includes R88 designs)
Answer in nM, number only, no unit symbol.

Look over these answered cases.
CUGGACAUAGUAUAGGAUAUAUGAAUAGUUACAUGAGGAUCACCCAUGUGCAUUUAUAUGCGAACAUAGAAGGGUGGUAGUUAAG [Mat - Same state - Malcolm Mod - D141] :: 88.4
AAAUAACAUGAGGAUCACCCAUGUUGCAACGGUACAGGAUAUGUGGGUGAAAAUAGCAUGGCAGAAGGGUAGUGUA [SameState1 Malc#29] :: 130
CCGAUGGUAUACUAGGAUAUGGGCGCCCUUACAUGAGGAUCACCCAUGUUUACACAAAUCCGCGGCCAGAAGGAGUUCAUGGGAG [Orgere] :: 90.3
AUAAUAUUAAGCUAGGAUAUACUAAAGUAAACAUGAGGAUCACCCAUGUAAAAAAAAAAACUCAUGUAGAAGGAGCAUAAAUAAA [moonwalk 9] :: 12.2
GAAAAACAUGAGGAUCACCCAUGUAGAGAUAUGGGAGGAUAUACAAAGACGAAAGUCGAGGUAGAAGGCCUAAAAG [Garnet 55] :: 24.4
AAAAGACAUGAGGAUCACCCAUGUCCUCGGACAUGAGGAUAUGUACAGACUUCGGUCUGUACAGAAGGCAUGUAAA [SS1 - 1070] :: 47.3
AAAAAACAUGAGGAUCACCCAUGUCUUCGGACAUGAGGAUAUGUACAGACUUCGGUCUGUACAGAAGGCAUGAAAA [SS1 - 1013] :: 256
AAGAAACAUGAGGAUCACCCAUGUACCCAAAAGGGAGGAUAUGGAAAAGAAAGAAAGAAACCAGAAGGCCCAUGAA [Artabanus the Hyrcanian] :: 10.8

apparent KD of MS2 coat protein of GAUCCGACUAGUCAGGAUAUCAGGCGUAAGACAUGAGGAUCACCCAUGUCCUAAGAACAAGUAACUGAGAAGGGACAGGGCGACC [JR_SS002_Sub413] on MS2 coat protein? 62.3

Could you share what apparent KD of MS2 coat protein was measured for AAAAUAAAAUAAAAGGAUAUAAAAAUAUAUACAUGAGGAUCACCCAUGUAUAUAAAAAUAAAAUAAAAGAAGGAAUAAAAAUAAA [SS2 507: MS2 7] , tested on MS2 coat protein? 22.7

Query apparent KD of MS2 coat protein on MS2 coat protein for AUCAGGAAGAGAGAGGAUAUCCAAAGGAAAACAUGAGGAUCACCCAUGUAAAAGGUAGGAAAUUGGGAGAAGGCUCAAGAGAGAG [salish99-ss2-093] 26.4

Provide the documented apparent KD of MS2 coat protein with MS2 coat protein as the system for GAUAGACAUGAGGAUCACCCAUGUAGAAUUAUGGGAGGAUAUACAAAGACGAGAGUCAGAGUAGAAGGCCUAGGAC [salish99-ss1-159] 23.6

State its apparent KD of MS2 coat protein on MS2 coat protein: AAGAAACAUGAGGAUCACCCAUGUGAAAUAAACACAGGAUAUGCGAAAAGAAACAAAGAAGCAGAAGGGUGAAGAA [Mat - Same State 1 - Tesla mod - 57] 15.1

Each recorded value in this set is attributed to the supplement of paper PMC9170038.
